Test: Half life in Sprague-Dawley rat at 30 mg/kg, po
Assay type: ADME, organism-based
Settings: in vivo
experimental readout: half-life (h)
Kindly provide the numeric value in h only, without the unit symbol.

Query string: Param item = COc1c(/C=C/c2ccc(NS(C)(=O)=O)cc2)cc(-n2ccc(=O)[nH]c2=O)cc1C(C)(C)C ; retrieve measured half-life.
Result string: 3.5

----------
Assay: Plasma concentration in Sprague-Dawley rat at 5 mg/kg, po up to 8 hrs
Type: ADME, organism-based
experimental readout: concentration at 8 h

Query string: Param item = COc1c(/C=C/c2ccc(NS(C)(=O)=O)cc2)cc(N2CCC(=O)NC2=O)cc1C(C)(C)C ; retrieve measured concentration at 8 h.
Result string: > 200 nM

----------
Assay: Tmax in human at 320 mg administered as single dose
Type: ADME
Details: in vivo
experimental readout: Tmax
Numeric answer plus unit only.

Query string: Param item = COc1c(/C=C/c2ccc(NS(C)(=O)=O)cc2)cc(-n2ccc(=O)[nH]c2=O)cc1C(C)(C)C ; retrieve measured Tmax.
Result string: 8.8 h

----------
Assay: AUC (infinity) in human at 160 mg administered as single dose
Assay type: ADME
Design: dose 160 mg, time infinity
Details: in vivo
experimental readout: AUC(0-inf) (ng·h/mL)
Kindly provide the numeric value in ng·h/mL only, without the unit symbol.

Query string: Param item = COc1c(/C=C/c2ccc(NS(C)(=O)=O)cc2)cc(-n2ccc(=O)[nH]c2=O)cc1C(C)(C)C ; retrieve measured AUC(0-inf).
Result string: 4640

----------
Assay: Plasma clearance in Sprague-Dawley rat at 5 mg/kg, iv
Type: ADME, organism-based
experimental readout: clearance (mL/min/kg)
Kindly provide the numeric value in mL/min/kg only, without the unit symbol.

Query string: Param item = COc1c(/C=C/c2ccc(NS(C)(=O)=O)cc2)cc(-n2cc(F)c(=O)[nH]c2=O)cc1C(C)(C)C ; retrieve measured clearance.
Result string: 14.2

Query string: Similarly, COc1c(C#Cc2ccc(NS(C)(=O)=O)cc2)cc(N2CCC(=O)NC2=O)cc1C(C)(C)C ?
Result string: 31.7

Query string: Similarly, COc1c(/C=C/c2ccc(NS(C)(=O)=O)c(F)c2)cc(-n2ccc(=O)[nH]c2=O)cc1C(C)(C)C ?
Result string: 6.33

More entries:
Query string: Param item = COc1c(/C=C/c2ccc(NS(C)(=O)=O)cc2)cc(N2CCC(=O)NC2=O)cc1C(C)(C)C ; retrieve measured clearance.
Result string: 10.7

Query string: Similarly, COc1c(C(=O)Nc2ccc(NS(C)(=O)=O)cc2)cc(N2CCC(=O)NC2=O)cc1C(C)(C)C ?
Result string: 25

Query string: Similarly, COc1c(/C=C/c2ccc(NS(C)(=O)=O)cc2)cc(-n2ccc(=O)[nH]c2=O)cc1C(C)(C)C [ABT-072] ?
Result string: 15

----------
Experiment: Half life in Sprague-Dawley rat at 5 mg/kg, po
Assay type: ADME, organism-based
Conditions: in vivo
A collection of compounds and their measured half-life
Kindly provide the numeric value in h only, without the unit symbol.

Query string: Param item = COc1c(C#Cc2ccc(NS(C)(=O)=O)cc2)cc(N2CCC(=O)NC2=O)cc1C(C)(C)C ; retrieve measured half-life.
Result string: 3

More entries:
Query string: Param item = COc1c(/C=C/c2ccc(NS(C)(=O)=O)cc2)cc(N2CCC(=O)NC2=O)cc1C(C)(C)C ; retrieve measured half-life.
Result string: 2.3

Query string: Similarly, COc1c(/C=C/c2ccc(NS(C)(=O)=O)cc2)cc(-n2cc(F)c(=O)[nH]c2=O)cc1C(C)(C)C ?
Result string: 3.7

Query string: Similarly, COc1c(/C=C/c2ccc(NS(C)(=O)=O)c(F)c2)cc(-n2ccc(=O)[nH]c2=O)cc1C(C)(C)C ?
Result string: 3.7

Query string: Similarly, COc1c(/C=C/c2ccc(NS(C)(=O)=O)cc2)cc(-n2ccc(=O)[nH]c2=O)cc1C(C)(C)C [ABT-072] ?
Result string: 3.1

----------
Assay: Cmax in Sprague-Dawley rat at 5 mg/kg, po
Type: ADME, organism-based
Design: dose 5 mg/kg, route oral
Conditions: in vivo
experimental readout: Cmax (ng/mL)
Kindly provide the numeric value in ng/mL only, without the unit symbol.

As a guide, the following entries are already answered.
Query string: Param item = COc1c(/C=C/c2ccc(NS(C)(=O)=O)cc2)cc(-n2ccc(=O)[nH]c2=O)cc1C(C)(C)C ; retrieve measured Cmax.
Result string: 280

Query string: Similarly, COc1c(C#Cc2ccc(NS(C)(=O)=O)cc2)cc(N2CCC(=O)NC2=O)cc1C(C)(C)C ?
Result string: 60

More entries:
Query string: Param item = COc1c(/C=C/c2ccc(NS(C)(=O)=O)cc2)cc(N2CCC(=O)NC2=O)cc1C(C)(C)C ; retrieve measured Cmax.
Result string: 260

----------
Experiment: Cmax in human infected with HCV genotype 1 at 160 mg administered once daily for 2 days
Format: ADME
Set-up: dose 160 mg
Settings: in vivo
experimental readout: Cmax (ng/mL)
Kindly provide the numeric value in ng/mL only, without the unit symbol.

Query string: Param item = COc1c(/C=C/c2ccc(NS(C)(=O)=O)cc2)cc(-n2ccc(=O)[nH]c2=O)cc1C(C)(C)C ; retrieve measured Cmax.
Result string: 415

----------
Experiment: Terminal half life in human at 160 mg administered as single dose
Format: ADME
Conditions: in vivo, read-out: beta t1/2 (converted)
experimental readout: half-life (h)
Kindly provide the numeric value in h only, without the unit symbol.

Query string: Param item = COc1c(/C=C/c2ccc(NS(C)(=O)=O)cc2)cc(-n2ccc(=O)[nH]c2=O)cc1C(C)(C)C [ABT-072] ; retrieve measured half-life.
Result string: 7.63

----------
Test system: Canis familiaris
Assay: AUC in dog at 30 mg/kg, po
Assay type: ADME, organism-based, Canis lupus familiaris
Settings: in vivo
experimental readout: AUC (µg·h/mL)
Kindly provide the numeric value in µg·h/mL only, without the unit symbol.

Query string: Param item = COc1c(/C=C/c2ccc(NS(C)(=O)=O)cc2)cc(-n2ccc(=O)[nH]c2=O)cc1C(C)(C)C ; retrieve measured AUC.
Result string: 124

----------
Test: Volume of distribution at steady state in Sprague-Dawley rat at 5 mg/kg, iv
Format: ADME, organism-based
Settings: in vivo, read-out: Vdss
experimental readout: Vd (L/kg)
Kindly provide the numeric value in L/kg only, without the unit symbol.

Query string: Param item = COc1c(/C=C/c2ccc(NS(C)(=O)=O)cc2)cc(-n2ccc(=O)[nH]c2=O)cc1C(C)(C)C [ABT-072] ; retrieve measured Vd.
Result string: 3.7

----------
Assay: Inhibition of HCV genotype 1b BK NS5B RNA dependent RNA polymerase assessed as reduction in [3H]UTP incorporation in to RNA preincubated for 15 mins followed by [3H]UTP addition measured after 3 hrs by microbeta scintillation counting method
Parameters: species or system Hepatitis C virus (isolate BK)
experimental readout: IC50 (nM)
Kindly provide the numeric value in nM only, without the unit symbol.

Query string: Param item = COc1c(NC(=O)c2ccc(NS(C)(=O)=O)cc2)cc(N2CCC(=O)NC2=O)cc1C(C)(C)C ; retrieve measured IC50.
Result string: 46

Query string: Similarly, COc1c(CNc2ccc(NS(C)(=O)=O)cc2)cc(N2CCC(=O)NC2=O)cc1C(C)(C)C ?
Result string: 270

Query string: Similarly, COc1c(/C=C(\C)c2ccc([N+](=O)[O-])cc2)cc(N2CCC(=O)NC2=O)cc1C(C)(C)C ?
Result string: 16.7

Query string: Similarly, COc1c(/C=C/c2ccc(NS(C)(=O)=O)cc2)cc(N2CCC(=O)NC2=O)cc1C(C)(C)C ?
Result string: 0.7

// moving on: another record for IC50
Query string: Param item = COc1c(COc2ccc(NS(C)(=O)=O)cc2)cc(N2CCC(=O)NC2=O)cc1C(C)(C)C ; retrieve measured IC50.
Result string: 167

----------
Experiment: Volume of distribution at steady state in dog at 2.5 mg/kg, iv
Format: ADME, organism-based, Canis lupus familiaris
Details: in vivo, read-out: Vdss
experimental readout: Vd (L/kg)
Kindly provide the numeric value in L/kg only, without the unit symbol.

Query string: Param item = COc1c(/C=C/c2ccc(NS(C)(=O)=O)cc2)cc(-n2ccc(=O)[nH]c2=O)cc1C(C)(C)C [ABT-072] ; retrieve measured Vd.
Result string: 1.5

----------
Test: AUC (infinity) in human at 80 mg administered as single dose
Format: ADME
Set-up: dose 80 mg, time infinity
Conditions: in vivo
experimental readout: AUC(0-inf) (ng·h/mL)
Kindly provide the numeric value in ng·h/mL only, without the unit symbol.

Query string: Param item = COc1c(/C=C/c2ccc(NS(C)(=O)=O)cc2)cc(-n2ccc(=O)[nH]c2=O)cc1C(C)(C)C ; retrieve measured AUC(0-inf).
Result string: 2440
